Origin of values: patent US20210115124A1

Biological target: T1, human VEGF (hVEGF) (human, UniProt P15692 181-395);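 also: fab variants injected over immobilized hVEGF on a CM5 chip, rate constants fitted with a one-to-one Langmuir model, Kd derived as koff over kon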
T1 construct: also called VEGF-A
T1 sequence: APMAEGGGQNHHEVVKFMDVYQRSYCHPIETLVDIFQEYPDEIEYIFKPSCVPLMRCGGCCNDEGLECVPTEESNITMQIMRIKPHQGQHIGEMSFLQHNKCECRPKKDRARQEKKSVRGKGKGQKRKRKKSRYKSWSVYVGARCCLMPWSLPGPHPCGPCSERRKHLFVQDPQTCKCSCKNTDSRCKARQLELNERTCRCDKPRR
Assay: SPR
Quantity Name: kon (M⁻¹ s⁻¹)
Provide only the numeric value, understood in M⁻¹ s⁻¹.

Solved cases (5 shown):
Q) Please look at this binder and report its kon: R19HCLC2 (Fab, V domains shown, Fab) VH: EEQLVEEGGGLVQPGESLRLSCAASGFEISDYWIHWVRQEPGEGLEWVAGITPAGGYEYYADSVEGRFTISADTSENTAYLQMNELRAEDTAVYYCARFVFFLPYAMDYWGQGELVTVSS VL: DIQMTQSPSSLSASVGDEVTITCRASQDVSTAVAWYQQKPGEAPKLLIYSASFLYSGVPSRFSGSGSGTDFTLTIESLQPEDAATYYCQQGYGAPFTFGQGTKVEIK
A) 889000

Q) Please look at this binder and report its kon: HCLC1 (Fab, V domains shown, Fab) VH: EEQLVEEGGGLVQPGESLELSCAASGFEISDYWIHWVRQEPGEGLEWVAGITPAGGYEYYADSVEGRFTISADTSENTAYLQMNELRAEDTAVYYCARFVFFLPYAMDYWGQGELVTVSS VL: DIQMTQSPESLSASVGDEVTITCRASQDVSTAVAWYQQKPGKAPKLLIYSASFLYSGVPSRFSGSGSGTDFTLTISSLQPEDAATYYCQQGYGAPFTFGQGTKVEIK
A) 1.37e+06

Q) Please look at this binder and report its kon: HCcombo (Fab, V domains shown, Fab) VH: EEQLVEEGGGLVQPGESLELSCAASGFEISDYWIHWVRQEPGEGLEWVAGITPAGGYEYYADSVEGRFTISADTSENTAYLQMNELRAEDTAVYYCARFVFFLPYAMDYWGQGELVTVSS VL: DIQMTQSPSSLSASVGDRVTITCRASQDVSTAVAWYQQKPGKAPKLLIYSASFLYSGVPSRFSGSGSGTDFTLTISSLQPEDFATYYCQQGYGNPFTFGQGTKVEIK
A) 2.05e+06

Q) Please look at this binder and report its kon: LCcombo4 (G6.31 WT VH with LCcombo4 VL) (Fab, V domains shown, Fab) VH: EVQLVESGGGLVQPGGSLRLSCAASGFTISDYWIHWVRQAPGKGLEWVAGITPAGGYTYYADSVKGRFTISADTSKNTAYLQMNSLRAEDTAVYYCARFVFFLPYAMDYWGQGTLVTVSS VL: DIQMTQSPSSLSASVGDEVTITCRASQDVSTAVAWYQQKPGKAPKLLIYSASFLYSGVPSRFSGSGSGTDFTLTISSLQPEDAATYYCQQGYGAPFTFGQGTKVEIK
A) 463000

Q) Please look at this binder and report its kon: G6.31 LC-N94A.LC-F83A (Fab, V domains shown, Fab; also called LC-F83A, LC-N94A; LCcombo5) VH: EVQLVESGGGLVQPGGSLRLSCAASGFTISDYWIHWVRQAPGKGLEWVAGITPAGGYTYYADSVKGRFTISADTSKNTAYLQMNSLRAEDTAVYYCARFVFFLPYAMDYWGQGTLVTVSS VL: DIQMTQSPSSLSASVGDRVTITCRASQDVSTAVAWYQQKPGKAPKLLIYSASFLYSGVPSRFSGSGSGTDFTLTISSLQPEDAATYYCQQGYGAPFTFGQGTKVEIK
A) 537000

Next:
Q) Please look at this binder and report its kon: HCLC4 (Fab, V domains shown, Fab) VH: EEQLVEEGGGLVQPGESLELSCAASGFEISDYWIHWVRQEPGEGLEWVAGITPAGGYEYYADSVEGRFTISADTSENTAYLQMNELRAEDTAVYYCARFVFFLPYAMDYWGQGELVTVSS VL: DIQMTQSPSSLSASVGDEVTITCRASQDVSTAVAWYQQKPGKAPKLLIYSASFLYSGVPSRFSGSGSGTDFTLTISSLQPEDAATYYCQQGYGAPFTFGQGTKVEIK
A) 2.03e+06
